- method_summary: in vitro
- Type: in vitro ADME, human
- measurement_conditions: human, Caco-2, Papp × 10^−4 (cm/s) (B→A)
- Method: A precise amount of FRLE reserve solution is diluted to concentrations of 50, 100, and 150 μg/mL, representing the low, medium, and high concentrations of FRLE. […] In the formula, 1.5 represents the volume of the test solution added to the B-side chamber (mL), 0.5 represents the volume of the test solution added to the A-side chamber (mL), and 0.2 is the volume of each sample taken (mL). […] The apparent permeability coefficient Papp (cm/s) is calculated using the following formula ([Lu et al., 2020]): […]
measured_parameter: Papp B→A at 180 min, 150 μg/mL
Remember to follow the number with its unit.

q: Looking for the measured Papp B→A at 180 min, 150 μg/mL of O=C(/C=C/c1ccc(O)cc1)OC[C@H]1O[C@@H](Oc2c(-c3ccc(O)cc3)oc3cc(O)cc(O)c3c2=O)[C@H](O)[C@@H](O)[C@@H]1O [Tiliroside] , can you help?
a: 283 ×10⁻⁶ cm/s

---

- Tested on: P-gp
- method_summary: in vitro
- Format: in vitro ADME, human
- measurement_conditions: human, Caco-2, Papp × 10^−4 (cm/s) (A→B)
measured_parameter: Papp A→B at 180 min, 50 μg/mL (×10⁻⁶ cm/s)
Numbers only, in ×10⁻⁶ cm/s.

q: GET /values?readout=Papp A→B at 180 min, 50 μg/mL&system=P-gp&item= O=C(/C=C/c1ccc(O)cc1)OC[C@H]1O[C@@H](Oc2c(-c3ccc(O)cc3)oc3cc(O)cc(O)c3c2=O)[C@H](O)[C@@H](O)[C@@H]1O [Tiliroside]
a: 142

---

- method_summary: in vitro
- Format: in vitro ADME, human
- measurement_conditions: human, Caco-2, pH 9, Papp × 10^−4 (cm/s) (A→B)
measured_parameter: Papp A→B at 180 min, 50 μg/mL
Remember to follow the number with its unit.

q: Looking for the measured Papp A→B at 180 min, 50 μg/mL of O=C(/C=C/c1ccc(O)cc1)OC[C@H]1O[C@@H](Oc2c(-c3ccc(O)cc3)oc3cc(O)cc(O)c3c2=O)[C@H](O)[C@@H](O)[C@@H]1O [Tiliroside] , can you help?
a: 45 ×10⁻⁶ cm/s

---

- method_summary: in vitro
- Format: in vitro ADME, human
- measurement_conditions: human, Caco-2, pH 6, Papp × 10^−4 (cm/s) (A→B)
measured_parameter: Papp A→B at 180 min, 150 μg/mL (×10⁻⁶ cm/s)
Answers are plain numbers, in ×10⁻⁶ cm/s.

q: Looking for the measured Papp A→B at 180 min, 150 μg/mL of O=C(/C=C/c1ccc(O)cc1)OC[C@H]1O[C@@H](Oc2c(-c3ccc(O)cc3)oc3cc(O)cc(O)c3c2=O)[C@H](O)[C@@H](O)[C@@H]1O [Tiliroside] , can you help?
a: 618

---

- Test system: P-gp
- method_summary: in vitro
- Type: in vitro ADME, human
- measurement_conditions: human, Caco-2, Papp × 10^−4 (cm/s) (B→A)
measured_parameter: Papp B→A at 180 min, 50 μg/mL (×10⁻⁶ cm/s)
Numbers only, in ×10⁻⁶ cm/s.

q: Looking for the measured Papp B→A at 180 min, 50 μg/mL of O=C(/C=C/c1ccc(O)cc1)OC[C@H]1O[C@@H](Oc2c(-c3ccc(O)cc3)oc3cc(O)cc(O)c3c2=O)[C@H](O)[C@@H](O)[C@@H]1O [Tiliroside] , can you help?
a: 156
